experiment: Caspase-3/7 induction in HepG2 cells by small molecules, qHTS cell viability counter screen (AID 1346981); conditions: CellTiter-Fluor fluorescence, 17 h; series mostly up to 92.4 µM; note: nearly all actives have a fitted effect of over 30% in size
Inconclusive results are not listed. The source made the active and inactive calls. Calls come from the whole dose curve; as a rule, active = well fitted cell-killing curve with a large enough effect in the repeat runs; inconclusive = weak or mixed curves, or effect the other way; inactive = flat fitted curve, though single readings scatter.
Bench note: report the call from y = active, n = inactive

| COMPOUND | CLASS |
| --- | --- |
| C1CCC2CCCCC2C1 (centres undefined) | n |
| N#Cc1ccccc1N | n |
| CCN(CC)C(=S)[S-].CCN(CC)C(=S)[S-].[Zn+2] | y |
| CC1(c2ccc(Oc3ccccc3)cc2)OC(=O)N(Nc2ccccc2)C1=O (centres undefined) | y |
| BrC(Br)Br | n |
| BrCBr | n |

**Query** Which result was noted for this compound in the test: CN(C)C1CSSSC1
**Result** n

**Query** Which result was noted for this compound in the test: C=CCOC(N)=O
**Result** n

**Query** Which result was noted for this compound in the test: Cc1cc(C)cc(OP(=O)(Oc2cc(C)cc(C)c2)Oc2cc(C)cc(C)c2)c1
**Result** n

**Query** Which result was noted for this compound in the test: FC(F)(F)c1cccc(C2=CCN(CCc3ccc4ccccc4c3)CC2)c1
**Result** n

###

test: qHTS assay for small molecules that induce genotoxicity in human embryonic kidney cells expressing luciferase-tagged ATAD5 - cell viability (AID 651634); conditions: HEK293T ATAD5-luc cells viability, CellTiter-Fluor, 15.5 h; series mostly up to 83.3 µM; note: nearly all actives have a fitted effect of over 25% in size; note: potency is the fitted concentration of half-maximal effect
Results filed as inconclusive are left out. Activity calls are given as the source filed them. The call rests on the fitted dose curve.

| SMILES | Potency |
| --- | --- |
| c1ccc2cc3c(cc2c1)-c1cccc2cccc-3c12 | inactive |
| C[C@@H]1CC[C@@]2(OC1)O[C@H]1[C@@H](O)[C@H]3[C@@H]4CC[C@H]5C[C@@H](O[C@@H]6O[C@H](CO)[C@H](O[C@@H]7O[C@H](CO)[C@@H](O)[C@H](O[C@@H]8OC[C@@H](O)[C@H](O)[C@H]8O)[C@H]7O[C@@H]7O[C@H](CO)[C@@H](O)[C@H](O[C@@H]8O[C@H](CO)[C@@H](O)[C@H](O)[C@H]8O)[C@H]7O)[C@H](O)[C@H]6O)[C@H](O)C[C@]5(C)[C@H]4CC[C@]3(C)[C@H]1[C@@H]2C | 64.9 µM (active) |
| CN(C)[C@@H]1C(=O)C(C(N)=O)=C(O)[C@@]2(O)C(=O)C3=C(O)c4c(O)ccc(Cl)c4[C@@](C)(O)[C@H]3C[C@@H]12 | inactive |

###

test: qHTS assay to identify small molecule agonists of H2AX - cell viability counter screen (AID 1224847); settings: CHO-K1 viability, CellTiter-Glo luminescence, 3 h; series mostly up to 154 µM; note: nearly all actives have a fitted effect of over 30% in size; note: potency is the fitted concentration of half-maximal effect
Inconclusive results are not listed. Calls of active or inactive are those of the source. The call rests on the fitted dose curve.
ENDPOINT LABEL: Potency

Here is how some compounds turned out for Potency.
| COMPOUND | VALUE MEASURED |
| --- | --- |
| C=COCCCl | inactive |
| CCOP(=S)(OCC)OC(Cl)C(Cl)(Cl)Cl (stereo unspecified) | inactive |
| CCc1nn(C)c(C(=O)NCc2ccc(C(C)(C)C)cc2)c1Cl | 56.6 µM (active) |
| CC(=O)[O-].[Tl+] | inactive |

Briefly, Potency measured for CC(=[OH+])/C=C(/C)[O-].CC(=[OH+])/C=C(\C)[O-].CC(=[OH+])/C=C(\C)[O-].[Al] : inactive

Briefly, Potency measured for CC(C)(C)C(O)/C(=C\c1ccc(Cl)cc1Cl)n1cncn1 (stereo unspecified) : 122 µM (active)

Briefly, Potency measured for Clc1ccc(CSC(Cn2ccnc2)c2ccc(Cl)cc2Cl)cc1 (stereo unspecified) : 49.2 µM (active)

Briefly, Potency measured for CCCCCCCCCCCCBr : inactive

Briefly, Potency measured for CNC(C)Cc1ccc2c(c1)OCO2 (stereo unspecified) : inactive

Briefly, Potency measured for NC(=O)CCl : inactive

Briefly, Potency measured for COc1cccc2c1C(=O)c1c(O)c3c(c(O)c1C2=O)C[C@@](O)(C(=O)CO)CC3OC1CC(N2CCOC(OC)C2)C(O)C(C)O1 (stereo partly specified) : inactive
